Assay: Oral bioavailability in mouse at 5 mg/kg
Format: ADME, organism-based
Conditions: in vivo
Measured parameter: bioavailability

// bioavailability lookup, key: Nc1nccn2c1c(-c1ccc3ccc(-c4ccccc4)nc3c1F)nc2[C@H]1CC[C@H](CO)CC1
23%

---

Assay: Volume of distribution at steady state in mouse at 2 mg/kg, iv
Format: ADME, organism-based
Design: dose 2 mg/kg, route intravenous
Settings: in vivo, read-out: Vdss
Measured parameter: Vd (L/kg)
Give bare numbers, in L/kg.

Could you tell me which Vd is on file for Nc1nccn2c1c(-c1ccc3ccc(-c4ccccc4)nc3c1F)nc2[C@H]1CC[C@H](CO)CC1 ?
7
